molecular target: Trypsin, Iodination grade, from human pancreas (human, UniProt P07477 24-247); test: cell-based or functional assay
measured attribute: % inhibition at 100 µM (%)
Note: unit % is implicit; provide only the numeric part.

Query block: Name the recorded % inhibition at 100 µM for YCTKSDPPICY (HELM PEPTIDE1{Y.C.T.K.S.D.P.P.I.C.Y.[dP].P}$PEPTIDE1,PEPTIDE1,2:R3-10:R3|PEPTIDE1,PEPTIDE1,1:R1-13:R2$$$V2.0; SMILES CC[C@H](C)[C@@H]1NC(=O)[C@@H]2CCCN2C(=O)[C@@H]2CCCN2C(=O)[C@H](CC(=O)O)NC(=O)[C@H](CO)NC(=O)[C@H](CCCCN)NC(=O)[C@H]([C@@H](C)O)NC(=O)[C@@H]2CSSC[C@H](NC1=O)C(=O)N[C@@H](Cc1ccc(O)cc1)C(=O)N1CCC[C@@H]1C(=O)N1CCC[C@H]1C(=O)N[C@@H](Cc1ccc(O)cc1)C(=O)N2) [Example 26] .
Result block: 84
